Where do these numbers come from? They come from patent US20120088737A2.

Recorded pIC50, one value per entry.
test.system: human NHE3 (Homo sapiens)
Construct: expressed in transfected cells; host or cells: OK26 cells (opossum kidney OK cells); OK26 ND sublines with opNHE1 reduced by 90% for A3
Sequence (P48764 26-834): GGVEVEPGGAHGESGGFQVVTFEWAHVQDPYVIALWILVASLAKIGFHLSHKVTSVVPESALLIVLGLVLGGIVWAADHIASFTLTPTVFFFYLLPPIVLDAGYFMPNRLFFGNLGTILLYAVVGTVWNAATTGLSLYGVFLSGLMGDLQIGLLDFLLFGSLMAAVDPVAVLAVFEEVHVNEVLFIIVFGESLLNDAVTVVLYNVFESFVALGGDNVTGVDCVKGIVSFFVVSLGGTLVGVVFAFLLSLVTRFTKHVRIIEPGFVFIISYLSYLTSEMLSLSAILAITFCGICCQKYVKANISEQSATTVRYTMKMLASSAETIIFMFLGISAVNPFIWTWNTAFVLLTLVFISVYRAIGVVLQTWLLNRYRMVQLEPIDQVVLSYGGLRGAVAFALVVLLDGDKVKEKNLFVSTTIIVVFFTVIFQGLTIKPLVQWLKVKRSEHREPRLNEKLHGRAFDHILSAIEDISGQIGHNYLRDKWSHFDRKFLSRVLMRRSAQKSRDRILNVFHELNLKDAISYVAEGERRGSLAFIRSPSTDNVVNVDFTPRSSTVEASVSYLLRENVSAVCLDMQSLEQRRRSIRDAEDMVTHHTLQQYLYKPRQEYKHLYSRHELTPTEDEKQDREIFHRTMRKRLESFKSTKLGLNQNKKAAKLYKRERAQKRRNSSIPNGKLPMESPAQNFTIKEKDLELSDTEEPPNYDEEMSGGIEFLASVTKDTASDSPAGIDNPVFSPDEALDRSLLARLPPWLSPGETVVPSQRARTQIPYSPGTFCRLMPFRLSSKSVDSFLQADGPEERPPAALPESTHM
measurement.description: Improved version of measurements of NHE3 inhibitory activities (OK26 ND cell lines)
Type: cell-based
condition.details: OK26 ND cell lines (opNHE1 expression reduced by 90%), measurement time 8 minutes at 26° C.; read-out: hNHE3 IC50
Answer as the number alone; pIC50 is minus log10 of concentration in mol/L.

Worked cases, pIC50 given:
>  <molecule>
C/C(=C\c1ccc(C)cc1-c1cccc(O)c1)C(=O)NC(=N)N [Example 37]

>  <numeric.value>
7.42

$$$$
>  <molecule>
C/C(=C\c1ccc(-c2ccc(F)c(O)c2)cc1-c1ccc(F)c(O)c1)C(=O)NC(=N)N [Example 76]

>  <numeric.value>
6.40

$$$$
>  <molecule>
C/C(=C\c1ccccc1-c1cccc(C(=O)NO)c1)C(=O)NC(=N)N [Example 55]

>  <numeric.value>
6.36

$$$$
>  <molecule>
COc1ccc(/C=C(\C)C(=O)NC(=N)N)c(-c2ccc(O)cc2)c1 [Example 73]

>  <numeric.value>
6.92

$$$$

Would you mind telling me what pIC50 value was observed for CC(=O)c1cccc(-c2ccccc2/C=C(\C)C(=O)NC(=N)N)c1 [Example 15] ?
6.44

So what does the record say about pIC50 for C/C(=C\c1ccccc1-c1ccc(C(=N)N)cc1C)C(=O)NC(=N)N [Example 57] ?
7.00

State the recorded pIC50 for this entry: C/C(=C\c1ccc(-c2ccc(O)cc2C)cc1)C(=O)NC(=N)N [Example 90]
6.52

Using the record for C/C(=C\c1ccc(C)cc1-c1ccc(C(=N)N)c(F)c1)C(=O)NC(=N)N [Example 79] , report its pIC50.
6.15

Return reported pIC50; argument: C/C(=C\c1ccc(-c2ccc(CO)cc2)cc1)C(=O)NC(=N)N [Example 93]
6.60

Sample C/C(=C\c1ccccc1-c1cc[nH]c1)C(=O)NC(=N)N [Example 84] — what was its pIC50?
6.74

Need pIC50 of C/C(=C\c1ccccc1-c1ccc(O)cc1Cl)C(=O)NC(=N)N [Example 60] , thanks.
6.51

Would you kindly share the measured pIC50 for C/C(=C\c1ccc(-c2ccc(O)c(O)c2)cc1)C(=O)NC(=N)N [Example 92] ?
6.82

pIC50 lookup needed for C/C(=C\c1ccc(Oc2ccc(S(N)(=O)=O)cc2)cc1-c1ccc(O)cc1)C(=O)NC(=N)N [Example 65] , thanks.
6.68

Give its pIC50 value. Item: C/C(=C\c1ccc(-c2ccc(O)cc2)cc1N1CCOCC1)C(=O)NC(=N)N [Example 94]
6.49

Tell me the measured pIC50 of C/C(=C\c1ccc(C)cc1-c1ccc(O)cc1)C(=O)NC(=N)N [Example 47] , please.
7.22

// query pIC50 value for entry C/C(=C\c1ccccc1-c1ccc(C(=N)N)c(F)c1)C(=O)NC(=N)N [Example 58]
8.05

# lookup: pIC50 of C/C(=C\c1cccc(C)c1-c1ccc(O)cc1)C(=O)NC(=N)N [Example 67]
6.92

Suppose we examine the molecule C/C(=C\c1ccc(-c2ccoc2)cc1)C(=O)NC(=N)N [Example 85] ; what pIC50 value has been reported?
6.33

# pIC50 lookup, item C/C(=C\c1ccc(-c2cccc(O)c2)cc1-c1cccc(O)c1)C(=O)NC(=N)N [Example 77]
7.21

State the recorded pIC50 for this entry: C/C(=C\c1ccc(C(F)(F)F)cc1-c1ccc(O)cc1)C(=O)NC(=N)N [Example 81]
6.20

Look at this molecule and give its reported pIC50. C/C(=C\c1ccc(-c2ccc(O)cc2)cc1-c1ccc(O)cc1)C(=O)NC(=N)N [Example 72]
7.06

Returns the measured pIC50 for the input molecule. Input: C/C(=C\c1ccccc1-c1cc(C)c(O)c(C)c1)C(=O)NC(=N)N [Example 22]
6.64

pIC50 lookup needed for C/C(=C\c1ccc(C)cc1-c1ccc(O)c(F)c1)C(=O)NC(=N)N [Example 62] , thanks.
7.04

Find the recorded pIC50 belonging to C/C(=C\c1ccccc1-c1ccc(O)cc1F)C(=O)NC(=N)N [Example 59] and report it.
6.55

----------
Papp A→B at 1 h, 50 μM values, listed per item
measurement.description: MDCK membrane permeability (trans-well)
Type: in vitro ADME, Canine
condition.details: dog, apical pH 6.5 / basal pH 7.4, 37° C.
Units required after the number.

>  <molecule.smiles>
COC(=O)c1ccc(-c2ccccc2/C=C(\C)C(=O)NC(=N)N)cc1

>  <assay.metric>
Papp A→B at 1 h, 50 μM

>  <result>
2 ×10⁻⁶ cm/s

$$$$

Query compound follows.
# Papp A→B at 1 h, 50 μM lookup, item `CC(=O)c1cccc(-c2ccccc2/C=C(\C)C(=O)NC(=N)N)c1`
1 ×10⁻⁶ cm/s

----------
Examples of compounds with documented log10 of IC50 follow.
test.system: NHE1 (Homo sapiens)
Construct: HLF cells (Human hepatoma cell line) were used as cells for the test; endogenous in cells; host or cells: HLF cells (human hepatoma cell line)
Sequence (P19634 whole entry): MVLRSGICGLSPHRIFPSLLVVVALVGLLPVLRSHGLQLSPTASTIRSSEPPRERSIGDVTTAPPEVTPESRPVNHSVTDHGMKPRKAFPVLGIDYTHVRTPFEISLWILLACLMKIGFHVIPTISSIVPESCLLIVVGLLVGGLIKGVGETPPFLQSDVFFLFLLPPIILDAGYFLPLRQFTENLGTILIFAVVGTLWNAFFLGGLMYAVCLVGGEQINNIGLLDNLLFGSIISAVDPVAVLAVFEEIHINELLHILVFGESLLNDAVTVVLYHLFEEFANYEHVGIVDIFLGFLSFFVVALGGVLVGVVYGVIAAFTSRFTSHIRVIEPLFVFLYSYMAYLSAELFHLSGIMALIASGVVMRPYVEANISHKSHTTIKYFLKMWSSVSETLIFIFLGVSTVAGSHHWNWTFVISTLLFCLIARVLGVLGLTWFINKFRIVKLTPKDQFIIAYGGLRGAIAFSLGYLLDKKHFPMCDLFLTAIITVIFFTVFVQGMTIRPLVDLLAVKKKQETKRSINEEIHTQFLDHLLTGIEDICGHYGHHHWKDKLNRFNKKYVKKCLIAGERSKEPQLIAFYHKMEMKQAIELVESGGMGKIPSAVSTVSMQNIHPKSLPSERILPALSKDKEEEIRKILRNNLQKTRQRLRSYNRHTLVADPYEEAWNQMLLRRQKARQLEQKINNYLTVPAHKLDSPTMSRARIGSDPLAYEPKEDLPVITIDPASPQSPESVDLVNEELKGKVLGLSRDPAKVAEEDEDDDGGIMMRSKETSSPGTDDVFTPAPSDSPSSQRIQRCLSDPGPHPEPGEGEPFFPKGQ
measurement.description: Measurements of NHE1 inhibitory activities (HLF cells, BCECF pH recovery)
Assay type: cell-based
condition.details: HLF cells (human hepatoma cell line), measured after 10 minutes; read-out: hNHE1 IC50
Response schema: value (number) is log10 of IC50 in units of nM.

Study these solved cases before continuing.
>  <molecule.smiles>
C/C(=C\c1ccc(C)cc1-c1ccc(C(=N)N)c(F)c1)C(=O)NC(=N)N

>  <log10 of IC50>
3.72

$$$$
>  <molecule.smiles>
C/C(=C\c1ccccc1-c1ccc(C(=N)N)cc1)C(=O)NC(=N)N

>  <log10 of IC50>
3.53

$$$$
>  <molecule.smiles>
C/C(=C\c1c(-c2ccc(O)cc2)cccc1-c1ccc(O)cc1)C(=O)NC(=N)N

>  <log10 of IC50>
3.89

$$$$
>  <molecule.smiles>
C/C(=C\c1ccc(Oc2ccc(S(N)(=O)=O)cc2)cc1-c1cccc(O)c1)C(=O)NC(=N)N

>  <log10 of IC50>
3.11

$$$$
>  <molecule.smiles>
COc1cc(-c2ccc(/C=C(\C)C(=O)NC(=N)N)c(-c3ccc(O)c(OC)c3)c2)ccc1O

>  <log10 of IC50>
3.52

$$$$
>  <molecule.smiles>
C/C(=C\c1ccccc1-c1ccc(B(O)O)cc1)C(=O)NC(=N)N

>  <log10 of IC50>
3.08

$$$$
>  <molecule.smiles>
C/C(=C\c1ccc(C)cc1-c1ccc(O)c(O)c1)C(=O)NC(=N)N

>  <log10 of IC50>
2.76

$$$$
>  <molecule.smiles>
COc1ccc(-c2cc(C)ccc2/C=C(\C)C(=O)NC(=N)N)cc1O

>  <log10 of IC50>
3.15

$$$$
>  <molecule.smiles>
C/C(=C\c1ccc(C)cc1-c1ccc(O)c(F)c1)C(=O)NC(=N)N

>  <log10 of IC50>
3.11

$$$$
>  <molecule.smiles>
C/C(=C\c1ccc(Oc2ccc(O)cc2)cc1-c1ccc(O)cc1)C(=O)NC(=N)N

>  <log10 of IC50>
3.11

$$$$

Give its log10 of IC50 value. Item: `CC(=O)c1cccc(-c2ccccc2/C=C(\C)C(=O)NC(=N)N)c1`
3.08

Field request: log10 of IC50 | item: `C/C(=C\c1ccccc1-c1cc(C)c(O)c(C)c1)C(=O)NC(=N)N`
3.49

What log10 of IC50 value was documented for this compound, `C/C(=C\c1ccccc1-c1cccc(C(=O)NO)c1)C(=O)NC(=N)N` ?
3.46

Item under review: `C/C(=C\c1ccccc1-c1ccc(O)cc1F)C(=O)NC(=N)N` . Reported log10 of IC50?
3.51

I would be grateful if you could share the reported log10 of IC50 for `C/C(=C\c1ccc(C)cc1-c1ccc(O)cc1)C(=O)NC(=N)N` .
3.20

# query: log10 of IC50 of entry `C/C(=C\c1ccccc1-c1ccc(C(=N)N)cc1C)C(=O)NC(=N)N`
3.04

Could you share which log10 of IC50 value was measured for `C/C(=C\c1ccc(-c2cccc(O)c2)cc1-c1cccc(O)c1)C(=O)NC(=N)N` ?
2.97

Requested field: log10 of IC50. Item: `C/C(=C\c1cccc(C)c1-c1ccc(O)cc1)C(=O)NC(=N)N`
3.32

So what's the measured log10 of IC50 for this one? `C/C(=C\c1ccccc1-c1ccc(O)c(F)c1)C(=O)NC(=N)N`
3.08

Record request: log10 of IC50 value, item `COc1cc(-c2ccccc2/C=C(\C)C(=O)NC(=N)N)ccc1O`
3.41

----------
test.system: human NHE3 (Homo sapiens)
Construct: expressed in transfected cells; host or cells: OK26 cells (opossum kidney OK cells); OK26 ND sublines with opNHE1 reduced by 90% for A3
measurement.description: Improved version of measurements of NHE3 inhibitory activities (OK26 ND cell lines)
Type: cell-based
condition.details: OK26 ND cell lines (opNHE1 expression reduced by 90%), measurement time 8 minutes at 26° C.; read-out: hNHE3 IC50
assay.metric: pIC50
Keep it numeric: pIC50 is minus log10 of the concentration in mol/L.

>  <molecule.smiles>
C/C(=C\c1ccccc1-c1ccc(O)c(O)c1)C(=O)NC(=N)N

>  <pIC50>
6.64

$$$$
>  <molecule.smiles>
C/C(=C\c1ccccc1-c1ccc(CO)cc1)C(=O)NC(=N)N

>  <pIC50>
6.40

$$$$
>  <molecule.smiles>
C/C(=C\c1ccc(Oc2ccc(S(N)(=O)=O)cc2)cc1-c1cccc(O)c1)C(=O)NC(=N)N

>  <pIC50>
6.82

$$$$
>  <molecule.smiles>
C/C(=C\c1ccccc1-c1ccc(O)cc1O)C(=O)NC(=N)N

>  <pIC50>
6.13

$$$$

// moving on: another record for pIC50
Any idea what pIC50 came out for `C/C(=C\c1cccc(C)c1-c1cccc(O)c1)C(=O)NC(=N)N` on human NHE3 (Homo sapiens)?
6.92
